# Tested system: recombinant M^Pro (Severe acute respiratory syndrome coronavirus 2)
# Test description: SARS-CoV-2 Mpro screening and IC50 determination (QS1 fluorogenic substrate, Drag assay)
# Format: biochemical
# Condition details: M^Pro IC50 (nM), Table 4
Property label: IC50 (nM)
Give your result in nM as a bare value.

Here's what some known entries look like.
{"Compound": "COc1cccc(-c2ccc(C(=O)N[C@@H](CC(C)C)C(=O)N[C@H](C#N)C[C@@H]3CCNC3=O)c(Cl)c2)c1 [18n]", "Measurement": 49}
{"Compound": "CC(C)C[C@H](NC(=O)c1ccc(-c2cccc3nn(C)cc23)cc1F)C(=O)N[C@H](C#N)C[C@@H]1CCNC1=O [18a]", "Measurement": 163}
{"Compound": "COc1ccc(-c2ccc(C(=O)N[C@@H](CC(C)C)C(=O)N[C@H](C#N)C[C@@H]3CCNC3=O)c(Cl)c2)cc1 [18r]", "Measurement": 45}

Next compound, IC50 to be filled in.
q: Look up IC50: COc1ccc(-c2ccc(C(=O)N[C@@H](CC(C)C)C(=O)N[C@H](C#N)C[C@@H]3CCNC3=O)c(F)c2)cc1 [18b]
a: 178
